Data provenance: patent US12492193B2

Reported EC50 values follow for various compounds
TEST TARGET: mutant CFTR (Homo sapiens, UniProt P13569, DEL508-508)
Sequence (P13569 with tags, fused parts or gaps DEL508-508): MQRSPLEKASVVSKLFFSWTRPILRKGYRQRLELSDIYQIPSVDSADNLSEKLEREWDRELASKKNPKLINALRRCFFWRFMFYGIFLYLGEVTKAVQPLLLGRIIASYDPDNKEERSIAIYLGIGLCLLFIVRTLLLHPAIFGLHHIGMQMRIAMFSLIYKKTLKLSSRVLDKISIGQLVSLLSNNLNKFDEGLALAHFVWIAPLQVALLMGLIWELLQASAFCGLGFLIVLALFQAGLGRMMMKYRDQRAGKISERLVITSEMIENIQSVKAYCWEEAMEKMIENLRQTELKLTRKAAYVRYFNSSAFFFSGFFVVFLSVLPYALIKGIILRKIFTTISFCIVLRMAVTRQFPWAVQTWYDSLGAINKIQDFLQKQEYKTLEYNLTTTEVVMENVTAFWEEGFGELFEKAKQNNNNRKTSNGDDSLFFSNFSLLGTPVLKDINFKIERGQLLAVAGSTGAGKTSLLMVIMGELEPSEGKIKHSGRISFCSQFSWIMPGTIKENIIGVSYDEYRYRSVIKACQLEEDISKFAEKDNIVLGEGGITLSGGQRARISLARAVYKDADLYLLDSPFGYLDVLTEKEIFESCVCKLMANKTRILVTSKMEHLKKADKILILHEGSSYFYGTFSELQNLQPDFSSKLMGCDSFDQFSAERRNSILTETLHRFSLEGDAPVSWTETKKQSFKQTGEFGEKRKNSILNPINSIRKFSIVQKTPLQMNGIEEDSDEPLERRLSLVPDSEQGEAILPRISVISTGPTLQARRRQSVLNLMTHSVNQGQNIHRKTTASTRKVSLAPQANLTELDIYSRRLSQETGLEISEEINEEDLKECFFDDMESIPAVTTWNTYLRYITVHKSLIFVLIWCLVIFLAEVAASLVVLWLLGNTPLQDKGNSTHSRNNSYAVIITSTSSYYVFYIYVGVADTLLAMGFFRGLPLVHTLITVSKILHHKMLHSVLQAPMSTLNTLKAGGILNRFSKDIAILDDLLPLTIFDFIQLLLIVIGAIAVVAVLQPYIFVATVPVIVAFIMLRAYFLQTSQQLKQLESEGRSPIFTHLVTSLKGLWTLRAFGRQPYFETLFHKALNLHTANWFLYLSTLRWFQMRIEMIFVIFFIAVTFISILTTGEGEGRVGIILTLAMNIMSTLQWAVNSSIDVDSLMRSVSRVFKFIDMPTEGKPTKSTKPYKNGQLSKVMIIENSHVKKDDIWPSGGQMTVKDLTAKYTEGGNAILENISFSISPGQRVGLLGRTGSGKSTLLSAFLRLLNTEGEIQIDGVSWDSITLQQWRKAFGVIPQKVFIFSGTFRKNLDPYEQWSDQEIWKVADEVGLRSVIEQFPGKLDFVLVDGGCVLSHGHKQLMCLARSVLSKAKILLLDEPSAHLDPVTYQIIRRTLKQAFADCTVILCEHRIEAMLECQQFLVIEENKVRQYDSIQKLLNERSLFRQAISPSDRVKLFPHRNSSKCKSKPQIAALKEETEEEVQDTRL
METHOD SUMMARY: Fluorescence (HS-YFP) assay for CFTR activity, corrector assay
SETTINGS: CFBE41o- and FRT cells with stable expression of mutant CFTR, 24 h compound treatment
Description: Fluorescence Assay for CFTR Activity Mutant CFTR activity was determined with the functional assay based on the halide-sensitive yellow fluorescent protein, HS-YFP (Galietta et al., FEBS Lett 499: 220-224, 2001). […] For determination of potentiator activity on G551D-CFTR or G1349D-CFTR, cells were directly stimulated with forskolin plus test compound without previous incubation at low temperature. […] Data were normalized to the initial background-subtracted fluorescence. […]

CHEMICAL SMILES: Cc1c(Cl)c(C(F)(F)F)nn1-c1cccc(C(=O)Nc2ccc3c(c2C(=O)O)OCO3)c1
EC50: > 2000 nM

CHEMICAL SMILES: Cc1cc2c(cc1N(C)C(=O)c1cccc(-n3nc(C)c(Cl)c3C)c1)OCO2
EC50: 1000 to 2000 nM

CHEMICAL SMILES: CN(C(=O)c1cccc(-n2nc(C(F)(F)F)cc2-c2cccnc2)c1)c1ccc2c(c1)OCO2
EC50: < 1000 nM

CHEMICAL SMILES: CNC(=O)c1c(Cl)c(C)nn1-c1cccc(C(=O)N(C)c2ccc3c(c2)OCO3)c1
EC50: > 2000 nM

CHEMICAL SMILES: Cc1nn(-c2cccc(C(=O)N(C)c3ccc4c(c3)OCO4)c2)c(C(N)=O)c1Cl
EC50: > 2000 nM

CHEMICAL SMILES: Cc1nn(-c2cccc(C(=O)Nc3ccc4oc(C(F)(F)F)nc4c3)c2)c(C)c1Cl
EC50: 1000 to 2000 nM

CHEMICAL SMILES: Cc1c(Cl)c(C(F)(F)F)nn1-c1cccc(C(=O)N(C)c2cc3c(cc2Cl)OCO3)c1
EC50: < 1000 nM

CHEMICAL SMILES: CN(C(=O)c1cccc(-n2nc(C(F)(F)F)c(Cl)c2OCc2ccc(C(=O)O)cc2)c1)c1ccc2c(c1)OCO2
EC50: < 1000 nM

====

TEST TARGET: mutant CFTR (Homo sapiens, UniProt P13569, DEL508-508)
METHOD SUMMARY: Fluorescence (HS-YFP) assay for CFTR activity, corrector assay
SETTINGS: CFBE41o- and FRT cells with stable expression of mutant CFTR, 24 h compound treatment
Form field: EC50 (one value per entry).

CHEMICAL SMILES: Cc1nc2ccc(N(C)C(=O)c3cccc(-n4nc(C(F)(F)F)c(Cl)c4COc4ccc(C(=O)O)cc4)c3)cn2n1
EC50: < 1 µM
//
CHEMICAL SMILES: Cc1nc2ccc(NC(=O)c3cccc(-n4nc(C(F)(F)F)c(Cl)c4C4CC4)c3)cc2o1
EC50: < 1 µM
//
CHEMICAL SMILES: Cc1nn(-c2cccc(C(=O)N(C)c3ccc4c(c3)OCO4)c2)c(C)c1C(F)(F)F
EC50: < 1 µM
//
CHEMICAL SMILES: CN(C(=O)c1cccc(-n2nc(C(F)(F)F)cc2OCC2(C(=O)O)CC2)c1)c1ccc2c(c1)OC(F)(F)O2
EC50: > 2 µM
